Listing of pIC50 toward Nitric oxide synthase 1 (Homo sapiens), each taken from a published source.
Reminder that pIC50 means the negative base-10 logarithm of the concentration expressed in mol/L.

-- ask # input molecule: CC1CN=C(N)CCS1 (centres undefined) ; wanted: its pIC50
-- reply 6.08

-- ask # input molecule: Cc1ccc2nc(O)oc2n1 ; wanted: its pIC50
-- reply 4.30

-- ask # input molecule: CCCC1CSCCC(N)=N1 (centres undefined) ; wanted: its pIC50
-- reply 5.55

-- ask # input molecule: CC(C)CN(Cc1cc(Cl)ccc1C#N)[C@@H]1CCCN(C)C1 ; wanted: its pIC50
-- reply 5.31

-- ask # input molecule: CN(Cc1cc(Cl)ccc1C#N)C1CCN(Cc2ccccc2)CC1 ; wanted: its pIC50
-- reply 5.74

-- ask # input molecule: COc1ccnc(CSc2nc3ccccc3[nH]2)c1 ; wanted: its pIC50
-- reply 4.57

-- ask # input molecule: NC1=NC(c2ccc(F)cc2)Nc2cccc(F)c21 (centres undefined) ; wanted: its pIC50
-- reply 5.46

-- ask # input molecule: NC1=NCCCCC1 ; wanted: its pIC50
-- reply 5.46

-- ask # input molecule: NC1=Nc2ccc(F)cc2[C@H]2CCC[C@@H]12 ; wanted: its pIC50
-- reply 6.96

-- ask # input molecule: CCOC(=O)N1CCC2(CC1)N=C(N)c1c(F)cccc1N2 ; wanted: its pIC50
-- reply 4.40

-- ask # input molecule: CC(=N)NCCCC[C@H](N)C(=O)O ; wanted: its pIC50
-- reply 4.21

-- ask # input molecule: C/C=C/CC1CCCCC(N)=N1 (centres undefined) ; wanted: its pIC50
-- reply 5.47

-- ask # input molecule: Cc1cc(N)nc(C(C)C)c1 ; wanted: its pIC50
-- reply 5.92

* * *

Listing of IC50 toward Nitric oxide synthase 1 (Homo sapiens), each taken from a published source.
Kindly format the answer as number then unit.

-- ask Form: Entry = CCc1cnc(N)cc1C | System = Nitric oxide synthase 1 (Homo sapiens) | IC50 = ____
-- reply 610 nM

-- ask Form: Entry = CCC[C@H]1CSCCC(N)=N1 | System = Nitric oxide synthase 1 (Homo sapiens) | IC50 = ____
-- reply 440 nM

-- ask Form: Entry = NC1=N[C@H]2CCCC[C@@H]2CC1 | System = Nitric oxide synthase 1 (Homo sapiens) | IC50 = ____
-- reply 530 nM

-- ask Form: Entry = NC1=Nc2cc(CCCNCc3cccc(Cl)c3)ccc2[C@H]2CCC[C@@]12F | System = Nitric oxide synthase 1 (Homo sapiens) | IC50 = ____
-- reply 310 nM

-- ask Form: Entry = NC1=Nc2ccc(Cl)cc2[C@H]2CCC[C@@]12F | System = Nitric oxide synthase 1 (Homo sapiens) | IC50 = ____
-- reply 290 nM

-- ask Form: Entry = CC(C)CC1CSCCC(N)=N1 (configuration not stated) | System = Nitric oxide synthase 1 (Homo sapiens) | IC50 = ____
-- reply 1900 nM

-- ask Form: Entry = CN1CCC(N(C)Cc2cc(Br)ccc2C#N)CC1 | System = Nitric oxide synthase 1 (Homo sapiens) | IC50 = ____
-- reply 530 nM

* * *

pIC50: −log10 of the molar value.
Listing of pIC50 toward Nitric oxide synthase 1 (Homo sapiens, UniProt P29475), each taken from a published source.

-- ask Form: Entry = NC1=NCCSCC1 | System = Nitric oxide synthase 1 (Homo sapiens, UniProt P29475) | pIC50 = ____
-- reply 5.17

-- ask Form: Entry = COc1ccnc(CSC)c1OC | System = Nitric oxide synthase 1 (Homo sapiens, UniProt P29475) | pIC50 = ____
-- reply < 4.00

-- ask Form: Entry = CNc1cc(C)cc(C)n1 | System = Nitric oxide synthase 1 (Homo sapiens, UniProt P29475) | pIC50 = ____
-- reply < 4.00

* * *

pIC50: −log10 of the molar value.
Listing of pIC50 toward Nitric oxide synthase 1 (Homo sapiens, UniProt P29475), each taken from a published source.

-- ask # input compound: Sc1nc2cc(Cl)ccc2o1 ; wanted: its pIC50
-- reply < 4.30

-- ask # input compound: CNCCN1CCCc2cc(NC(=N)c3cccs3)ccc21 ; wanted: its pIC50
-- reply 6.75

-- ask # input compound: CC1CC(N)=NC2CCCCC2S1 (stereo not drawn) ; wanted: its pIC50
-- reply < 4.30

* * *

Listing of log10 IC50 toward Nitric oxide synthase 1 (Homo sapiens, UniProt P29475), each taken from a published source.
Recall that a logarithmic scale is used here: each number is log10 of IC50 in nM.

-- ask Form: Entry = NC1=Nc2ccc(C(F)(F)F)cc2[C@H]2CCC[C@@H]12 | System = Nitric oxide synthase 1 (Homo sapiens, UniProt P29475) | log10 IC50 = ____
-- reply 3.20

-- ask Form: Entry = NC1=NCCCSC1 | System = Nitric oxide synthase 1 (Homo sapiens, UniProt P29475) | log10 IC50 = ____
-- reply 3.45

-- ask Form: Entry = NC1=Nc2ccc(Cl)cc2[C@H]2CCC[C@@H]12 | System = Nitric oxide synthase 1 (Homo sapiens, UniProt P29475) | log10 IC50 = ____
-- reply 2.15

-- ask Form: Entry = CC(C)CN1CCC(N(C)Cc2cc(Cl)ccc2C#N)CC1 | System = Nitric oxide synthase 1 (Homo sapiens, UniProt P29475) | log10 IC50 = ____
-- reply 2.78

-- ask Form: Entry = NC1=Nc2ccccc2[C@H]2CCCCC[C@@H]12 | System = Nitric oxide synthase 1 (Homo sapiens, UniProt P29475) | log10 IC50 = ____
-- reply 5.00

* * *

Listing of IC50 toward Nitric oxide synthase 1 (Homo sapiens, UniProt P29475), each taken from a published source.
Report as a plain number; the unit nM is understood.

-- ask # input molecule: NC1=NC2CCCC2C1 (stereo not drawn) ; wanted: its IC50
-- reply 9900

-- ask # input molecule: CN(C)[C@H]1CC[C@@H](c2c[nH]c3ccc(NC(=N)c4cccs4)cc32)CC1 ; wanted: its IC50
-- reply 350

-- ask # input molecule: CC(C)NC(=O)CN1CCN(CCc2ccc(-c3cccc(N)n3)cc2)CC1 ; wanted: its IC50
-- reply 330

* * *

Listing of IC50 toward Nitric oxide synthase 1 (Homo sapiens), each taken from a published source.
Lab note - cut at 6 µM for IC50: condition met if strictly below, condition not met if not.

-- ask Is 6 µM strictly greater than the compound's reported IC50? compound: CCSC(N)=Nc1ccc2sc(N)nc2c1
-- reply condition met

-- ask Is 6 µM strictly greater than the compound's reported IC50? compound: CCC[C@@H]1CSCCC(=N)N1
-- reply condition not met

-- ask Is 6 µM strictly greater than the compound's reported IC50? compound: CCC1CC(N)=NC1C (stereo not given)
-- reply condition met

-- ask Is 6 µM strictly greater than the compound's reported IC50? compound: CCCCC1CSC(N)=N1 (stereo not given)
-- reply condition not met

-- ask Is 6 µM strictly greater than the compound's reported IC50? compound: CNCc1ccc2c(c1)N=C(N)[C@]1(F)CCC[C@H]21
-- reply condition met

-- ask Is 6 µM strictly greater than the compound's reported IC50? compound: Nc1ccc2c(n1)CCC2
-- reply condition not met

-- ask Is 6 µM strictly greater than the compound's reported IC50? compound: Cc1ccc2oc(O)nc2c1
-- reply condition not met

-- ask Is 6 µM strictly greater than the compound's reported IC50? compound: COc1ccnc(CSc2nc3cccnc3[nH]2)c1
-- reply condition met

-- ask Is 6 µM strictly greater than the compound's reported IC50? compound: COc1cccc(CN2CCC(Nc3nc4ccc(N=C(N)c5cccs5)cc4s3)CC2)c1
-- reply condition met
